Reference source for all entries: PubChem BioAssay (NCI)

Test system: MDA-MB-231 breast
Test: NCI-60 one-dose screen, 48 h (100 = growth as untreated, 0 = no growth, -100 = all killed)
Settings: 10 µM unless noted
The panel holds about 83,000 compounds, 20% with a hit somewhere; the sample as a whole holds those more often.
Let's look at some compounds and their measured growth.
Write the number in % without appending the unit.

{"compound": "Cc1cc(-c2ccc(N=Nc3c(S(=O)(=O)O)cc4cc(S(=O)(=O)O)cc(O)c4c3O)c(C)c2)ccc1N=Nc1c(S(=O)(=O)O)cc2cc(S(=O)(=O)O)cc(O)c2c1O", "growth (%)": 107}
{"compound": "c1cn2cc(-c3ccc4ncn(C5CCCCC5)c4c3)nc(-c3ccc4c(c3)ncn4C3CCCCC3)c2n1", "growth (%)": -68.7}
{"compound": "COc1cccc(/C=N\\Nc2ccc([N+](=O)[O-])cn2)c1O", "growth (%)": 42.4}

QUERY: Need growth of COc1ccc(N=C2CSc3nnc(-c4cc(F)c(Cl)cc4Cl)n3N2)cc1 , thanks.
RESULT: -4.51

QUERY: Need growth, item C=C(c1ccc(C(=O)NCCCn2ccnc2)cc1)c1cc2c(cc1C)C(C)(C)CCC2(C)C
RESULT: 28.7

QUERY: Endpoint output: growth of CCOC(=O)C#Cc1c(C(=O)OCC)nnn1[C@@H]1O[C@H](COC(C)=O)[C@@H](OC(C)=O)[C@H]1OC(C)=O . Value?
RESULT: 107

QUERY: Report growth for c1cc(C2CCCCC2)ccc1-c1cnc2nonc2n1 please.
RESULT: 18.6

QUERY: I am curious: what growth value has been reported for c1cc2c(cc1-c1cnc3nonc3n1)OCO2 ?
RESULT: 75.1

QUERY: Sample CC1CCN(CCCCCOc2ccc3oc4ccc(Cl)cc4c(=O)c3c2)CC1 — what was its growth?
RESULT: 48

QUERY: Can you look up the measured growth of CCN(CC)Cc1cc(Nc2ccnc3ccc(OC)cc23)ccc1O for me?
RESULT: 58.8

QUERY: Fill in the blank: the reported growth of CCCCSc1ncnc2c1ncn2C1CCCCO1 (configuration not stated) is ____.
RESULT: 110

QUERY: Suppose we examine the compound O=C(CCCN1CCC(O)(c2ccc(Br)cc2)CC1)c1ccc(F)cc1 ; what growth value has been reported?
RESULT: 40.7

====

Test system: SF-539 CNS
Assay: NCI-60 one-dose screen, 48 h (100 = growth as untreated, 0 = no growth, -100 = all killed)
Settings: 10 µM unless noted
The panel holds about 83,000 compounds, 20% with a hit somewhere; the sample as a whole holds those more often.
Recorded measurements of growth, one per entry
Please state the figure in %; there is no need to write the unit.

Consider the worked cases shown below.
{"molecule": "CC(C)(CCc1ccccn1)C(=O)CCCc1ccccn1", "value_unit": "%", "growth": 114}
{"molecule": "COc1ccc2c(c1)sc1nc(-c3ccccc3)c(-c3cccc4ccccc34)n12", "value_unit": "%", "growth": 0.248}
{"molecule": "COc1cc(OC)c(Cl)cc1N", "value_unit": "%", "growth": 95.4}
{"molecule": "COc1cc(C2C(C#N)=C(N)Oc3cc4c(cc32)OCO4)cc2c1OCO2 (stereo unspecified)", "value_unit": "%", "growth": 2.43}
{"molecule": "CC(C)CCSc1nc(Nc2ccccc2)c(C#N)c(-c2ccc(F)cc2)n1", "value_unit": "%", "growth": 52.7}

QUERY: Value lookup for growth; key = O=C(c1ccccc1)C(CCc1ccccn1)CCc1ccccn1
RESULT: 103

QUERY: // query growth value for entry C=C1C[C@@]2(C)C(CC[C@]3(C)C2CC=C2C4CC(C)(C)C[C@@H](OC(=O)/C(C)=C\C)[C@]4(C(=O)O)CC[C@]23C)C(C)(C)C1=O (stereo partly specified)
RESULT: -19.8

QUERY: I am curious: what growth value has been reported for COc1cc(CN2CCC(N3CCCC3=O)c3ccccc32)cc(OC)c1OC (stereo unspecified) ?
RESULT: 93.7

QUERY: Look at this molecule and give its reported growth. CCCCCCCCCCCC1=NC(C)(C)CN1CCO
RESULT: 78.9

QUERY: # query: growth of entry C=C(C)[C@@H]1CC[C@]2(C(=O)NC(COC(=O)C(Cl)Cl)(COC(=O)C(Cl)Cl)COC(=O)C(Cl)Cl)CC[C@]3(C)[C@H](CC[C@@H]4[C@@]5(C)CC[C@H](OC(C)=O)C(C)(C)[C@@H]5CC[C@]43C)[C@@H]12
RESULT: 76.5

QUERY: Value lookup for growth; key = C=CCOC(=O)C1=C(C)NC2=C(C(=O)CCC2)C1c1ccc(F)cc1 (stereo unspecified)
RESULT: 102

QUERY: Record request: growth value, item CCN(CC)CCCC(C)Nc1c(-c2ccccc2)cnc2cc(Cl)ccc12 (stereo unspecified)
RESULT: 83.2

QUERY: Endpoint output: growth of CCC(=O)NC1=C(Cl)C(=O)C(NC(=O)CC)=C(Cl)C1=O . Value?
RESULT: 117

QUERY: // returns reported growth for input Nc1c(C(=O)Nc2cccc(Cl)c2)sc2nc3c(cc12)C(=O)CCC3
RESULT: 27.3

QUERY: // returns reported growth for input O=C(CCl)Nc1ccc2c(c1)C(=O)c1ccccc1C2=O
RESULT: -10.5

QUERY: May I ask what growth has been recorded for O=C(Nc1ccccc1)c1cc2ccccc2s1 ?
RESULT: 110

====

Tested on: K-562 leukemia
Test: NCI-60 one-dose screen, 48 h (100 = growth as untreated, 0 = no growth, -100 = all killed)
Conditions: 10 µM unless noted
About 83,000 compounds went through this panel and 20% of them were active in at least one assay; those are over-represented in the sample as a whole.
Each entry below carries its reported growth.
The reply should contain only the number, in %.

// known answers, use as guide
{"compound": "CCOC(=O)Cn1c(-c2nonc2NC(=O)c2ccccc2F)nc2ccccc21", "growth / %": 31.3}
{"compound": "CC(=O)Nc1c(Br)cc2c(c1Br)Cc1cc(Br)ccc1-2", "growth / %": 80.5}
{"compound": "NNC(=O)CSc1nc2scc(-c3ccccc3)c2c(=O)n1-c1ccccc1", "growth / %": 89.9}
{"compound": "CC(=O)C1CCC2C3CC(C)=C4CC(O)CCC4(C)C3CCC12C (stereo not given)", "growth / %": 86.1}
{"compound": "O=C(Nc1cccc(Cl)c1)Nc1ccccc1Cl", "growth / %": 61.3}

QUERY: For COc1ccc(Oc2nc(Nc3ccc(N4CCOCC4)cc3)ncc2NC(=O)Nc2cccc(OC)c2)cc1 , what is its reported growth?
RESULT: 57

QUERY: Entry Clc1ccc(-c2cnc3c(-c4ccnc(N5CCNCC5)c4)cnn3c2)cc1 : reported growth = ?
RESULT: -13.5

QUERY: Quick one: growth for COc1ccc(CC2c3cc(OC)c(OC)cc3CC[N+]2(C)CCC(=O)OCCCCCOC(=O)CC[N+]2(C)CCc3cc(OC)c(OC)cc3C2Cc2ccc(OC)c(OC)c2)cc1OC (stereo not given) ?
RESULT: 111

====

Test system: SNB-19 CNS
Assay: NCI-60 one-dose screen, 48 h (100 = growth as untreated, 0 = no growth, -100 = all killed)
Settings: 10 µM unless noted
The panel holds about 83,000 compounds, 20% with a hit somewhere; the sample as a whole holds those more often. Active and inactive are the calls of the source. How the source made its calls: active means growth percent below 10; inactive means the rest.
Listed here: items and their measured growth.

These recorded examples may help you get a feel for the data.
{"compound": "CCOC(=O)Nc1ccc2nc(N3CCCCCC3)sc2c1", "parameter": "growth", "reported": "33.6% (inactive)"}
{"compound": "CCOC(=O)C1C(=O)C=C(c2ccccc2)CC1c1sc(N(C)Cc2ccccc2)nc1Cl (configuration not stated)", "parameter": "growth", "reported": "89.7% (inactive)"}
{"compound": "O=C(CCl)Nc1ccc2c(c1)C(=O)c1ccccc1C2=O", "parameter": "growth", "reported": "36.9% (inactive)"}

QUERY: Form: Entry = O=C1Nc2ccccc2/C1=C\c1nc(C2CCN(S(=O)(=O)c3ccc(F)cc3)CC2)n2ccccc12 | System = SNB-19 CNS | growth = ____
RESULT: -6.15% (active)

QUERY: Form entry - test system: SNB-19 CNS; read-out: growth; compound: CC(C)(C)OC(=O)N1CCCN(CCNc2nccc(-c3c(-c4cccc(O)c4)nc4sccn34)n2)S1(=O)=O
RESULT: 126% (inactive)

QUERY: Param readout = growth; param system = SNB-19 CNS; param query = CC1CCCN(CCCCOc2ccc(-c3ccc(C#N)cc3)cc2)C1 (configuration not stated) ; response: value
RESULT: 95.3% (inactive)

QUERY: Param readout= growth; system= SNB-19 CNS; entry= O=C1C=CN2C(=O)CC=CC2[C@@H]1O (some centres not stated) ; returns value.
RESULT: 130% (inactive)

QUERY: Test system SNB-19 CNS; read-out growth; what value for CCn1c(=O)c(C(=O)NCCCO)c(O)c2ccccc21 ?
RESULT: 102% (inactive)
